# TESTED TARGET: Ubiquitin carboxyl-terminal hydrolase 1 (Homo sapiens) (UniProt O94782)
# Sequence (O94782 whole entry, looked up): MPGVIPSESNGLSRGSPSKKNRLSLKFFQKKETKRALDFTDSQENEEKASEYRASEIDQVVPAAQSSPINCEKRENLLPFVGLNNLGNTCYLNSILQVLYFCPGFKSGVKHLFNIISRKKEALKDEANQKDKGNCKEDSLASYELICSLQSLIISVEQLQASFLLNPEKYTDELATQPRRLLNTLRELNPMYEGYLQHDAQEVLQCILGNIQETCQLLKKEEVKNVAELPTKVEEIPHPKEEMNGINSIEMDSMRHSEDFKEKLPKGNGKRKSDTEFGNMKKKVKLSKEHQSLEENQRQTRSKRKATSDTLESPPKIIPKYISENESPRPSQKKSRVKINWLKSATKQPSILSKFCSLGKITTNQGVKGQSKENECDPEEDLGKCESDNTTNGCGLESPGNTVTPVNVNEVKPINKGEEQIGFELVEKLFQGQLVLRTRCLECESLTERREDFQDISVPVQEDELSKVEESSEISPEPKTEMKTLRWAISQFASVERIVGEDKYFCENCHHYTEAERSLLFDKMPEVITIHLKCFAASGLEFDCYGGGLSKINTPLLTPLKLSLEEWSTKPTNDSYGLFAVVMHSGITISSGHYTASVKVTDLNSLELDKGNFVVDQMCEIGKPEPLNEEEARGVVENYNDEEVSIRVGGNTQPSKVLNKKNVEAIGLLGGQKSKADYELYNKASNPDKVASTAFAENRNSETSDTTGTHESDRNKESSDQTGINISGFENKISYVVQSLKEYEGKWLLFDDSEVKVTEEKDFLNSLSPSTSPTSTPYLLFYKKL
# PROTOCOL: Inhibitors of USP1/UAF1: Primary Screen; further: nearly all actives have a fitted effect of over 60% in size; further: potency means the concentration at half of the fitted maximal effect
# APPLIED CONDITIONS: recombinant USP1/UAF1, Ub-Rhodamine cleavage fluorescence; series mostly up to 57.1 µM
The whole screen tested about 390,000 compounds, of which about 910 (0.23%) were called active. Another 5% or so got no clear call; they are omitted. The sample holds actives, similar compounds and a random draw of the others, so the mix is not that of the screen.
READOUT LABEL: Potency

Here are 5 compounds together with their reported answers.
Cc1ncoc1C(=O)NCC1=C(c2cccc3ccccc23)C[C@@H]2CC[C@H]1N2Cc1ccco1
inactive
O=C1C2CCN(CC2)C1(CO)CO
inactive
O=C1NC(=O)N(c2ccccc2)C(=O)/C1=C/c1ccc([N+](=O)[O-])s1
28.2 µM (active)
Cn1cc(/C=C/c2nc3ccccc3c(=O)n2-c2ccccc2)c2ccccc21
inactive
Cc1ccc(-n2c(/C=C/c3cccc(C(F)(F)F)c3)nc3ccccc3c2=O)cc1
inactive

Request: Look up and report measured Potency (Ubiquitin carboxyl-terminal hydrolase 1 (Homo sapiens) (UniProt O94782)) for the following compound: COC(=O)C1=C(c2ccccc2)C[C@@H]2CC[C@H]1N2C(=O)NCc1ccco1
Result: inactive

Request: Look up and report measured Potency (Ubiquitin carboxyl-terminal hydrolase 1 (Homo sapiens) (UniProt O94782)) for the following compound: COc1cccc(N2C(=O)NC(=O)/C(=C\c3cn(C)c4ccccc34)C2=O)c1
Result: 11.2 µM (active)

Request: Look up and report measured Potency (Ubiquitin carboxyl-terminal hydrolase 1 (Homo sapiens) (UniProt O94782)) for the following compound: Cc1c(C(=O)O)cccc1-n1c(C)cc(/C=C2\C(=O)NC(=O)N(c3ccc4c(c3)OCO4)C2=O)c1C
Result: inactive

Request: Look up and report measured Potency (Ubiquitin carboxyl-terminal hydrolase 1 (Homo sapiens) (UniProt O94782)) for the following compound: C[N+](C)(C)CCOP(=O)([O-])OC[C@H](O)CO
Result: inactive

Request: Look up and report measured Potency (Ubiquitin carboxyl-terminal hydrolase 1 (Homo sapiens) (UniProt O94782)) for the following compound: CN(C)CC1Oc2ccccc2OC1(O)c1ccccc1 (stereo not given)
Result: inactive
